assay.target: Sodium channel protein type 8 subunit alpha (Homo sapiens)
Sequence (Q9UQD0 whole entry, looked up): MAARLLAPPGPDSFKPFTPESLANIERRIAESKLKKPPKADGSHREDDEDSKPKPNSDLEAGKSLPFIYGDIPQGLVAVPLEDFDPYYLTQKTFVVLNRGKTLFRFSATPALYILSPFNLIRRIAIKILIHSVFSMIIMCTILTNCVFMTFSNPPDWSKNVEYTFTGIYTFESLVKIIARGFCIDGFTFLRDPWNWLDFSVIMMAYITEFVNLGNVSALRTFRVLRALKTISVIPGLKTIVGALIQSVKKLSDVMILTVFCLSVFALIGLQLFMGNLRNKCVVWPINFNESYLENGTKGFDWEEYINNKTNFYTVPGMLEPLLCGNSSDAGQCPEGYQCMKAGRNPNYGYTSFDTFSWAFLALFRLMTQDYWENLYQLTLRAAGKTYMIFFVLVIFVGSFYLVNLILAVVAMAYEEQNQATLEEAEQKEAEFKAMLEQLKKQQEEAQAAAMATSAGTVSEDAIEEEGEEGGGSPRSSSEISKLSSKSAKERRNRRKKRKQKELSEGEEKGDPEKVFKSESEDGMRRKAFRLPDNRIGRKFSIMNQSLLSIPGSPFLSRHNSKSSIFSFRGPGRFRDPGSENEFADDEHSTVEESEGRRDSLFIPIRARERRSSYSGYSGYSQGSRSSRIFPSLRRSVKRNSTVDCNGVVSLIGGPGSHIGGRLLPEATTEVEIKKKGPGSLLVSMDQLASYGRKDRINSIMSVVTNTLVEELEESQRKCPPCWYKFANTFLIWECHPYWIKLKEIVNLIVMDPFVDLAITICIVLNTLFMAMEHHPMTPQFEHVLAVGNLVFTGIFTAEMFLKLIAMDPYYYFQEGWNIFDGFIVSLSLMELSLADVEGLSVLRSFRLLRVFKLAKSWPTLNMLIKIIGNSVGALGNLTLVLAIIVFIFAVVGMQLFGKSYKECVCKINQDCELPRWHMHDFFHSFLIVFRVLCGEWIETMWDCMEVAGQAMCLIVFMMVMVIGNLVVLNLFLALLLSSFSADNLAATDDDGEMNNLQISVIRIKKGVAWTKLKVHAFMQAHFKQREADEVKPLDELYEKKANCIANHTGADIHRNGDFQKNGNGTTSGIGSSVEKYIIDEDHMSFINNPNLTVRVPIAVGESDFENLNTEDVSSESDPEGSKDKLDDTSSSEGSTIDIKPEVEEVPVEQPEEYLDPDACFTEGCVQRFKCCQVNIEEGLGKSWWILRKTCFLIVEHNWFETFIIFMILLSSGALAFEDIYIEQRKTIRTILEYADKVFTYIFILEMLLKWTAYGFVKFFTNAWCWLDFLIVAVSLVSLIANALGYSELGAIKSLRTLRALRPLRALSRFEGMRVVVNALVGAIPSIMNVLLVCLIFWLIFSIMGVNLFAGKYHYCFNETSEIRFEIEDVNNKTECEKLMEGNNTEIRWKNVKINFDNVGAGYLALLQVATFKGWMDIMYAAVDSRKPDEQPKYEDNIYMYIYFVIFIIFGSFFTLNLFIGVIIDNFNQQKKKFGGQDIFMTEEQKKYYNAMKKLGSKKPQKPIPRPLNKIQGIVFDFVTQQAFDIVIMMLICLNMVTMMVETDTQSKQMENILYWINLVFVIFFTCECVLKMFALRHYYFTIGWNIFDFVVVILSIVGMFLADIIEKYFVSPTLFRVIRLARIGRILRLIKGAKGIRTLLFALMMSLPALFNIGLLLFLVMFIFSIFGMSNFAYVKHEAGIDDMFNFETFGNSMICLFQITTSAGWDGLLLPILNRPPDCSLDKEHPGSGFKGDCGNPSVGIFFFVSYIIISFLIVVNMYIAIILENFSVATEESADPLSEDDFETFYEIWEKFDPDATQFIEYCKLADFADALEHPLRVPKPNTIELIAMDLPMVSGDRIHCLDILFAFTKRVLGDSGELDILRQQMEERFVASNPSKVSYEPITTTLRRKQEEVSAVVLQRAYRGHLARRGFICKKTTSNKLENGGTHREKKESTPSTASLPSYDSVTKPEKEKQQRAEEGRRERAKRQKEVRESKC
assay.procedure: Inhibition of human Nav1.6 expressed in HEK293 cells assessed as change in membrane potential at 50 uM by patch clamp technique
Assay type: cell-based
observed.property: inhibition (%)
Write the value in % as a bare number.

Example compounds with recorded inhibition:
# structure.smiles, value.observed
records = [
    ("Nc1nc(N)c(-c2cc(Cl)cc(Cl)c2Cl)c(CF)n1", 62.7),
    ("NCc1noc(-c2c3ccccc3nn2Cc2ccccc2)n1", 31.5),
    ("CN1CCN(c2ncc(-c3cc(Cl)cc(Cl)c3Cl)c(N)n2)CC1", 43.4),
]

# input for lookup
Prompt: Read off the recorded inhibition for NCc1noc(-c2nn(Cc3ccccc3)c3ccccc23)n1
Response: 40.9
